# SYSTEM: human Kv7.2 (Homo sapiens, UniProt O43526)
# Sequence (O43526 whole entry): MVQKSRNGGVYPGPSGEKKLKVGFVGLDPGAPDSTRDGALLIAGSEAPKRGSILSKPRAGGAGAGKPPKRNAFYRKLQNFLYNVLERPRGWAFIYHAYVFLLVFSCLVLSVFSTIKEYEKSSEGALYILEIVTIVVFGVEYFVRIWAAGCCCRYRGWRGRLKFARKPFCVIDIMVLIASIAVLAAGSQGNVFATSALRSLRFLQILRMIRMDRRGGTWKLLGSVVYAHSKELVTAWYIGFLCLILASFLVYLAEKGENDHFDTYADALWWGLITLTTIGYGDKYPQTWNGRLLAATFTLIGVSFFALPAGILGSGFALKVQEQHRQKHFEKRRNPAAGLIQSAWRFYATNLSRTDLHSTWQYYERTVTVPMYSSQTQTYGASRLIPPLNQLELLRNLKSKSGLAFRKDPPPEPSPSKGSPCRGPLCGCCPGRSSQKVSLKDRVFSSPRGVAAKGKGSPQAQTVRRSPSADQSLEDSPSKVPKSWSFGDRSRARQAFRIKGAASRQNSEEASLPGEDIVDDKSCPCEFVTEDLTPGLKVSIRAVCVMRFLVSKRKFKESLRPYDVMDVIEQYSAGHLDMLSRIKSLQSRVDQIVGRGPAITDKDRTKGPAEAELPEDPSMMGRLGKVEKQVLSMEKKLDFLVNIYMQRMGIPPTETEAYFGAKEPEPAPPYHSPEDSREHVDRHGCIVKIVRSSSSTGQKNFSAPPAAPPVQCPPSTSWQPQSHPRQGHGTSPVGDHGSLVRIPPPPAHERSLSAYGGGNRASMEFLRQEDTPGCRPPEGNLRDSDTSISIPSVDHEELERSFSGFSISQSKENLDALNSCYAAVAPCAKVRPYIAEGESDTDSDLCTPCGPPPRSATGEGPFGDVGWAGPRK
# EXPERIMENT: activation (potentiation) of Kv7.2 current, SyncroPatch 384 electrophysiology in CHO cells stably expressing human Kv7.2
# TEST CONTEXT: human Kv7.2 in CHO cells; in presence of 5.6 μM zinc pyrithione; % activation relative to 30 μM ML-213
pEC50: −log10 of the molar value.
EXPERIMENTAL ENDPOINT: pEC50

These solved cases illustrate the format of a correct answer.
Determine from records and report pEC50 for CCCCNC(=O)NCC(C)(OC)c1cccc(Cl)c1 (stereo not drawn)
5.44

Answer with reported pEC50 of CO[C@@](C)(CNC(=O)C1CC12CCC(F)(F)CC2)c1cccc(Cl)c1 (stereo partly drawn)
6.42

I = O=C(NCC1CCCCO1)NCC1(c2cccc(Cl)c2)CC1 (stereo not drawn)
II = CCOc1cccc(NC(=O)NCC(C)(OC)c2cccc(Cl)c2)c1 (stereo not drawn)
Determine, for I and II , which has the greater value of pEC50. Selection: enter the item's label.
II

a = N#Cc1cccc([C@]2(CNC(=O)C3CC3n3cccc3)CCO2)c1 (stereo partly drawn)
b = N#Cc1cccc([C@]2(CNC(=O)CC3CCCCC3)CCO2)c1
Just curious, which one has the larger pEC50 reading, a or b ? Lab log: write the label of the selected item as the result.
a
(a: 5.94, b: 5.27)

P = O=C(NC[C@@]1(c2cccc(Cl)c2)CCO1)[C@H]1C[C@@H]1c1ccccc1
Q = O=C(NCC1(c2cccc(OC(F)F)n2)CCO1)C1CC12CCC(F)(F)CC2 (stereo not drawn)
pEC50 comparison. Which is larger, P or Q ? When you have decided, please share the label of that item.
P
